Biological target: sodium-proton exchanger of subtype 3 (NHE3) (Homo sapiens, UniProt P48764)
Construct: expressed in transfected cells
Experiment: Recovery of intracellular pH (pHi) after acidification in LAP1 cells stably expressing NHE3 (BCECF fluorescence, FLIPR)
Type: cell-based
Conditions: LAP1 cells stably expressing NHE3; pH recovery after acidification; range 1 is % inhibition at 10 μM; read-out: Activity range (inhibitory effect on NHE3)
pIC50: −log10 of the molar value.
Quantity Measured: pIC50

Clc1ccc(O[C@@H]2c3ccccc3C[C@H]2N2C[C@H]3CNC[C@H]3C2)cn1 (racemic); 5.00 to 6.00
Cc1nnc(C)n1-c1ccc(O[C@H]2c3ccccc3C[C@@H]2N2CCC[C@@H](N)C2)cc1; 5.00 to 6.00
N[C@H]1CCCN([C@H]2CCc3ccccc3[C@@H]2Oc2ccc(-n3cncn3)cc2)C1 (racemic); 5.00 to 6.00

Pending molecule:
**Query** Fill in: pIC50 of N#Cc1cc(Cl)ccc1O[C@@H]1c2ccccc2C[C@H]1N1CCC(N)C1 (mixture of isomers) is ___
**Result** 5.00 to 6.00

###

Target: sodium-proton exchanger of subtype 3 (NHE3) (Homo sapiens, UniProt P48764)
Construct: expressed in transfected cells
Sequence (P48764 26-834): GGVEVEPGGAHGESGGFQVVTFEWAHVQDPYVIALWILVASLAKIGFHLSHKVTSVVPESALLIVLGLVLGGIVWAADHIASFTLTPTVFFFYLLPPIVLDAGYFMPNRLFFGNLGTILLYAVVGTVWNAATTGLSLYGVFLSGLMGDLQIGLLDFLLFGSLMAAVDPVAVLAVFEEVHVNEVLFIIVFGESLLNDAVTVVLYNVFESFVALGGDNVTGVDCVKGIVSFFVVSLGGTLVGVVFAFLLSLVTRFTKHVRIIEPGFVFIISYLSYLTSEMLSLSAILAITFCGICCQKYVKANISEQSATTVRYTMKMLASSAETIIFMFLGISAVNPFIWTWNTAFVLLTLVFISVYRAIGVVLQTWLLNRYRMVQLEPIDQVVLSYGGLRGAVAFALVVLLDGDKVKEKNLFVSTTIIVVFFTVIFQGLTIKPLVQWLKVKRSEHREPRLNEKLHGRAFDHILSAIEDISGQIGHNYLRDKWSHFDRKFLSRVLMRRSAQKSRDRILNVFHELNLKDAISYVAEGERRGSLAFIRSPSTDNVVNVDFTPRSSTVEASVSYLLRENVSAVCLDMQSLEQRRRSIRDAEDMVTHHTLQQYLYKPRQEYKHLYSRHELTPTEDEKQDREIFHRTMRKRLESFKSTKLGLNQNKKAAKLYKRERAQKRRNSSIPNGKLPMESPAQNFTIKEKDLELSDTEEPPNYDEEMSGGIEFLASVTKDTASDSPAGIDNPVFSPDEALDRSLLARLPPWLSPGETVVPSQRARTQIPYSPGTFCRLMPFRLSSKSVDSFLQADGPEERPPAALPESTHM
Experiment: Recovery of intracellular pH (pHi) after acidification in LAP1 cells stably expressing NHE3 (BCECF fluorescence, FLIPR)
Format: cell-based
Conditions: LAP1 cells stably expressing NHE3; pH recovery after acidification; range 1 is % inhibition at 10 μM; read-out: Activity range (inhibitory effect on NHE3)
pIC50: −log10 of the molar value.
Entries and their measured pIC50 follow.

Worked cases, answers included:
CS(=O)(=O)c1ccc(O[C@H]2c3cc(Cl)cc(Cl)c3C[C@@H]2N2CCC[C@@H](NCCC(F)(F)F)C2)cc1 [Example 223]; > 6.00
CS(=O)(=O)c1ccc(O[C@H]2c3cc(Cl)c(Cl)cc3C[C@@H]2N2CCCNCC2)cc1 (racemic) [Example 286]; 5.00 to 6.00
Cn1ccn(-c2ccc(Cl)c(O[C@H]3c4cc(Cl)cc(F)c4C[C@@H]3N3CC[C@@H](O)C3)c2)c1=O [Example 339]; > 6.00

// switching to the query molecule
**Query** Look up pIC50: CCOC(=O)c1ncoc1-c1ccc(O[C@H]2c3ccccc3CC[C@@H]2N2CCC[C@H](N)C2)cc1 (racemic) [Example 584]
**Result** 5.00 to 6.00

###

Recorded pIC50 values for a group of molecules are listed next.
Target: sodium-proton exchanger of subtype 3 (NHE3) (Homo sapiens)
Construct: expressed in transfected cells
Sequence (P48764 26-834): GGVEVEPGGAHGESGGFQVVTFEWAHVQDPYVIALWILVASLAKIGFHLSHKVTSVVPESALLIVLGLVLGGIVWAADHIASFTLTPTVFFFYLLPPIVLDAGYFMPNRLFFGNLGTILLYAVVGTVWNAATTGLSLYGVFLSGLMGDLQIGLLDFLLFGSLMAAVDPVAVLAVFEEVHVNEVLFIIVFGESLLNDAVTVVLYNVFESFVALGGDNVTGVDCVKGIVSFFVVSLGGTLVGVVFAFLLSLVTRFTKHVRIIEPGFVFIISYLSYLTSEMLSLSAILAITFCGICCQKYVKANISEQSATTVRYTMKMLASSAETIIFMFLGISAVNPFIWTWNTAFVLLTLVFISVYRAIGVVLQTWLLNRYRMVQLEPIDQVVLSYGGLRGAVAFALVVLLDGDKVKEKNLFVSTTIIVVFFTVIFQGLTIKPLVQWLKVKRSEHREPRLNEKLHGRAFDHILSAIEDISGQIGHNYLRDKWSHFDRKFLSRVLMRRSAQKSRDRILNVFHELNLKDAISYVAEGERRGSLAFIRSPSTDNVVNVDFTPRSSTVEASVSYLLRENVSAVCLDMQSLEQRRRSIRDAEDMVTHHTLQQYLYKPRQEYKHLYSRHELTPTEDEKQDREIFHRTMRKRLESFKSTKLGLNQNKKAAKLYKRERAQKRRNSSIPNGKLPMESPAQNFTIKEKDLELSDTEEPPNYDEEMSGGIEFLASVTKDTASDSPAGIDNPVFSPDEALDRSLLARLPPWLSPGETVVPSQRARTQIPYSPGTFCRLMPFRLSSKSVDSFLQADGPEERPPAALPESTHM
Test: Recovery of intracellular pH (pHi) after acidification in LAP1 cells stably expressing NHE3 (BCECF fluorescence, FLIPR)
Assay type: cell-based
Conditions: LAP1 cells stably expressing NHE3; pH recovery after acidification; range 1 is % inhibition at 10 μM; read-out: Activity range (inhibitory effect on NHE3)
pIC50: −log10 of the molar value.

Here are 3 molecules together with their reported answers.
COCCc1ccc(O[C@@H]2c3ccccc3C[C@H]2N2CCC[C@@H](N)C2)cc1 (racemic) [Example 116]; 5.00 to 6.00
Cc1nnc(C)n1-c1ccc(O[C@H]2c3cc(Cl)cc(Cl)c3C[C@@H]2N2CC[C@@H](O)C2)c(F)c1 [Example 130]; > 6.00
CS(=O)(=O)c1ccc(O[C@@H]2c3cc(Cl)cc(F)c3C[C@H]2N2CCC[C@@H](N)C2)cc1 (racemic) [Example 93]; > 6.00

**Query** Entry under review: COCCc1ccc(O[C@@H]2c3ccccc3C[C@H]2N2C[C@H]3CNC[C@H]3C2)cc1 (racemic) [Example 19] . Reported pIC50?
**Result** 5.00 to 6.00

**Query** Try this molecule next: c1ccc2c(c1)C[C@@H](N1C[C@H]3CNC[C@H]3C1)[C@@H]2Oc1ccc2cc[nH]c2c1 (racemic) [Example 587]
**Result** 5.00 to 6.00

**Query** Check NC1CCN([C@@H]2Cc3ccccc3[C@H]2Oc2cccc(N3CCNCC3)c2)C1 (mixture of isomers) [Example 270] too.
**Result** 5.00 to 6.00

**Query** And Cc1nnc(C)n1-c1ccc(O[C@H]2c3cc(Cl)cc(Cl)c3C[C@@H]2N2CC[C@@H](F)C2)cc1 [Example 561] ?
**Result** > 6.00

**Query** Item: CC(=O)Nc1cccc(O[C@H]2c3ccc(F)cc3C[C@@H]2N2CCCC2)c1 (racemic) [Example 656]
**Result** 5.00 to 6.00

**Query** Field entry: N#Cc1ccc(O[C@H]2c3cc(Cl)cc(Cl)c3C[C@@H]2N2CC[C@@H](O)C2)c(F)c1 [Example 554]
**Result** 5.00 to 6.00

**Query** Another molecule to look at: O=c1[nH]ccn1-c1ccc(O[C@H]2c3cc(Cl)cc(Cl)c3C[C@@H]2N2CC[C@@H](O)C2)c(F)c1 [Example 323]
**Result** > 6.00

**Query** Same again, this time with N[C@@H]1CCCN([C@H]2CCc3ccccc3[C@@H]2Oc2ccc3ccncc3c2)C1 (racemic) [Example 84]
**Result** > 6.00

**Query** Try the molecule N#Cc1ccc(O[C@@H]2c3ccccc3C[C@H]2N2CCC(CN)C2)c(Cl)c1 (mixture of isomers) [Example 541]
**Result** 5.00 to 6.00

**Query** Entry to check: N[C@@H]1CCCN([C@H]2CCc3ccccc3[C@@H]2Oc2cccc3ncccc23)C1 (racemic) [Example 89]
**Result** 5.00 to 6.00

**Query** // same read-out, input: N[C@H]1CCCN([C@@H]2Cc3ccccc3[C@H]2Oc2ccc(Br)cc2-c2cc[nH]n2)C1 (racemic) [Example 204]
**Result** 5.00 to 6.00

**Query** Queued: FC(F)(F)CCN[C@@H]1CCCN([C@H]2Cc3c(Cl)cc(Cl)cc3[C@@H]2Oc2ccc(-n3cncn3)cc2)C1 [Example 221]
**Result** > 6.00
